The measurements presented in this section are drawn from ChEMBL document CHEMBL2016487.

Test: Cmax in dog at 3 mg/kg, po
Assay type: ADME, organism-based, Canis lupus familiaris
Parameters: dose 3 mg/kg, route oral
Settings: in vivo
PARAMETER MEASURED: Cmax
Kindly report the value followed by its unit.

Problem: Requested read-out: Cmax. Entry: "Cc1c(NCCN2CCCC2)cc(C(=O)CCC(F)(F)F)cc1N1CCN(c2ncnc3[nH]nc(Br)c23)CC1"
Solution: 100 nM

###

Molecular target: UniProt:P23443
Sequence (P23443 whole entry): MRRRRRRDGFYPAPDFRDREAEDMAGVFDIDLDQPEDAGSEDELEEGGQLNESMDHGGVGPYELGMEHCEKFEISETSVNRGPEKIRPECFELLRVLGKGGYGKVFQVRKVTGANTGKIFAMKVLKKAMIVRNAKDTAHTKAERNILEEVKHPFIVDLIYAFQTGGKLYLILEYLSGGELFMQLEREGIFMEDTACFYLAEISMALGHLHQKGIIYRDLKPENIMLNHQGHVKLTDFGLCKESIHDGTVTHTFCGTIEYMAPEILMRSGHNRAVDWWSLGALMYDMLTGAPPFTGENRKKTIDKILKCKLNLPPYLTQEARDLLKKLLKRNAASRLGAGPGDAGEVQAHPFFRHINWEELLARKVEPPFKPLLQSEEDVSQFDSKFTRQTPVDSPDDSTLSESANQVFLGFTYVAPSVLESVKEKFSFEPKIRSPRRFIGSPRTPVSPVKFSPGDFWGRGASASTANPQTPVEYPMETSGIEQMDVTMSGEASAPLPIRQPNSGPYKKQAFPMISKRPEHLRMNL
Assay: Inhibition of p70S6K-mediated ribosomal protein S6 phosphorylation in human A549 cells after 3 hrs by chemiluminescence assay
Type: cell-based
PARAMETER MEASURED: pIC50
When answering, recall that pIC50 equals minus log10 of the concentration in mol/L, and write that number alone.

Problem: Requested read-out: pIC50. Entry: "Cc1c(NCCN2CCCC2)cc(OCC(C)C)cc1N1CCN(c2ncnc3[nH]nc(Br)c23)CC1"
Solution: 7.43

Problem: Now give it for "Cc1noc(-c2cc(NCCN3CCCC3)c(C)c(N3CCN(c4ncnc5[nH]nc(Br)c45)CC3)c2)n1" too.
Solution: 7.89

Problem: Now give it for "Cc1c(NCCN2CCCC2)cc(C(=O)CCC(F)(F)F)cc1N1CCN(c2ncnc3[nH]nc(Br)c23)CC1" too.
Solution: 7.52

Problem: Now give it for "CCc1n[nH]c2ncnc(N3CCN(c4cc(Cl)cc(NCCN(C)C)c4C)CC3)c12" too.
Solution: 7.35

###

Assay: Clearance in rat at 2.5 mg/kg
Assay type: ADME, organism-based
Set-up: dose 2.5 mg/kg
Details: in vivo
PARAMETER MEASURED: clearance (mL/min/kg)
Number only, in mL/min/kg; omit the unit.

Problem: Requested read-out: clearance. Entry: "Cc1c(NCCN2CCCC2)cc(C(=O)CCC(F)(F)F)cc1N1CCN(c2ncnc3[nH]nc(Br)c23)CC1"
Solution: 45.4

Problem: Now give it for "Cc1c(NCCN2CCCC2)cc(COCC(F)(F)F)cc1N1CCN(c2ncnc3[nH]nc(Br)c23)CC1" too.
Solution: 63.5

Problem: Now give it for "Cc1noc(-c2cc(NCCN3CCCC3)c(C)c(N3CCN(c4ncnc5[nH]nc(Br)c45)CC3)c2)n1" too.
Solution: 73

###

Experiment: Volume of distribution in rat at 5 mg/kg
Type: ADME, organism-based
Design: dose 5 mg/kg
Conditions: in vivo
Answer each item with its documented Vd.
Number only, in L/kg; omit the unit.

Problem: Requested read-out: Vd. Entry: "CCC(=O)c1cc(NCCN2CCCC2)c(C)c(N2CCN(c3ncnc4[nH]nc(Br)c34)CC2)c1"
Solution: 10.5

Problem: Now give it for "Cc1c(NCCN2CCCC2)cc(OCC(C)C)cc1N1CCN(c2ncnc3[nH]nc(Br)c23)CC1" too.
Solution: 14.7

###

Experiment: Cmax in rat at 5 mg/kg, po
Assay type: ADME, organism-based
Set-up: dose 5 mg/kg, route oral
Details: in vivo
Answer each item with its documented Cmax.
Number only, in nM; omit the unit.

Problem: Requested read-out: Cmax. Entry: "CCC(=O)c1cc(NCCN2CCCC2)c(C)c(N2CCN(c3ncnc4[nH]nc(Br)c34)CC2)c1"
Solution: 140

Problem: Now give it for "Cc1c(NCCN2CCCC2)cc(OCC(C)C)cc1N1CCN(c2ncnc3[nH]nc(Br)c23)CC1" too.
Solution: 70
